Assay: Human HepG2 cell viability assay in 384 well format
Type: toxicity, cell-based
Set-up: dose 125 nL, time 70.5 hour; concentration not given beside the values
Conditions: HepG2 cells, read-out: Inhibition
METRIC: cytotoxicity at 70.5 h (%)
Give bare numbers, in %.

Take a look at these entries with their results.
Endpoint output: cytotoxicity at 70.5 h of CC(C)CN1C[C@@H]2C(=O)NC3(CCN(C(=O)c4cccnc4)CC3)[C@@H]2C1 . Value?
-9.79

Endpoint output: cytotoxicity at 70.5 h of O=C(CC1CCCC1)N1CC[C@H]2[C@H]1CCN2c1nncs1 . Value?
19.9

Endpoint output: cytotoxicity at 70.5 h of CC1CN(C(=O)CN(Cc2ccccc2Br)C2CC2)CCO1 (stereo unspecified) . Value?
-0.289

Endpoint output: cytotoxicity at 70.5 h of CC(=O)c1cccc(NC(=O)NCCOCC2CC2)c1 . Value?
-6.67

Please look at the items below and tell me cytotoxicity at 70.5 h for each one, in order.
1. Cc1cc(CS(=O)(=O)NCC2CCCCC2)on1
2. c1cncc(OC[C@@]23CCO[C@@H]2CCN(Cc2cccs2)C3)c1

[0.508, -100]

====

I'd appreciate it if you could supply cytotoxicity at 70.5 h values for the items below.
Test: Human HepG2 cell viability assay in 384 well format
Type: toxicity, cell-based
Parameters: dose 125 nL, time 70.5 hour; concentration not given beside the values
Settings: HepG2 cells, read-out: Inhibition
Answer format: number, then unit.

Take a look at these entries with their results.
Endpoint output: cytotoxicity at 70.5 h of CN(C)C[C@H]1O[C@H](Cc2cc(-c3ccccn3)on2)CC[C@@H]1O . Value?
-4.76%

Endpoint output: cytotoxicity at 70.5 h of Cn1ccnc1CN1CCN(CC(O)c2ccco2)CC1 (centres undefined) . Value?
-25.9%

Please look at the items below and tell me cytotoxicity at 70.5 h for each one, in order.
1. O=C(COc1cccc(Cl)c1)N1CCOCC1c1ncon1 (centres undefined)
2. Cc1cnccc1CN1CC[C@@](C)(O)[C@H](Oc2ccccc2)C1
3. Cc1cc(C)nc(NC(C)Cc2cnccn2)n1 (centres undefined)
4. O=C(c1cc(C2CC2)[nH]n1)N1CCN(Cc2ccsc2)CC1
5. COC(=O)CNC(=O)CSCc1nc(O)c2cc(C)sc2n1

["13.9%", "22.4%", "-14%", "22%", "4.84%"]

Please look at the items below and tell me cytotoxicity at 70.5 h for each one, in order.
1. Cc1nc(CN2CCCN(c3nccs3)CC2)no1
2. CSCC(=O)N[C@H]1CN(Cc2c(C)noc2C)C[C@@H]1C(C)C
3. CC(C)Nc1nc2c(s1)C(=O)CN(C(=O)NCc1ccccc1)C2
4. Oc1cc(-c2ccccn2)nc(C2CCN(Cc3ccncc3)CC2)n1

10.6%
-0.898%
1.44%
16.5%

Please look at the items below and tell me cytotoxicity at 70.5 h for each one, in order.
1. CN(C)[C@H]1CCCCN(Cc2ccccc2Cn2cccn2)C1
2. Cc1nc(C)n(CC2CCCN2CC(=O)Nc2nncs2)n1 (centres undefined)
3. CN1CC(C(=O)NC(C)(C)CNC(=O)OC(C)(C)C)CC1=O (centres undefined)
4. CC(Cn1cccn1)NC(=O)N(C)Cc1cnn(C)c1 (centres undefined)
5. CCC(CC)NC(=O)NCc1ccnc(-n2ccnc2C)c1
6. CN(C)S(=O)(=O)N1CC[C@]2(C[C@H](Oc3ncccc3F)CO2)C1
7. Cc1nc(N(C)C)ncc1C(=O)NCCc1csc(-c2cnccn2)n1
8. CN1CCN(S(=O)(=O)c2cncc(F)c2)c2ccccc2C1

1: 2.32%; 2: -0.801%; 3: 9.2%; 4: -7.21%; 5: -2.5%; 6: 2.84%; 7: -6.1%; 8: -11.8%
